# Tested on: Hs578T complex spheroid growth, percent test/control
# method-notes: Anticancer human tumor Hs578T cell line growth inhibition [AhR];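 further: luminescent viability signal as a proxy for spheroid growth; spheroids exposed to agents for one week after three days of growth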
# test-settings: second compound 0.1 µM; first compound 0.003 µM; stronger effect = lower value
experimental-readout: viability, T/C (%)
Just the number please, in %, no unit attached.

Check out these entries, answers already filled in.
[[record]]
molecule = "CCc1c2c(nc3ccc(O)cc13)-c1cc3c(c(=O)n1C2)COC(=O)[C@]3(O)CC + CC(CO)NC(=O)c1cc(-c2ccc(Cl)cc2)nn(-c2cnn(C)c2)c1=O"
assayed_target = "Hs578T complex spheroid growth, percent test/control"
experimental_readout = "viability, T/C"
test_value = 86.2

[[record]]
molecule = "Nc1ncn(C2CC(O)C(CO)S2)c(=O)n1 (centres undefined) + CC(CO)NC(=O)c1cc(-c2ccc(Cl)cc2)nn(-c2cnn(C)c2)c1=O"
assayed_target = "Hs578T complex spheroid growth, percent test/control"
experimental_readout = "viability, T/C"
test_value = 124

[[record]]
molecule = "CC(C)CC(NC(=O)C(Cc1ccccc1)NC(=O)c1cnccn1)B(O)O (centres undefined) + CC(CO)NC(=O)c1cc(-c2ccc(Cl)cc2)nn(-c2cnn(C)c2)c1=O"
assayed_target = "Hs578T complex spheroid growth, percent test/control"
experimental_readout = "viability, T/C"
test_value = 75.7


Ask: Entry under review: CC(C)CC(NC(=O)C(Cc1ccccc1)NC(=O)c1cnccn1)B(O)O (centres undefined) + Cc1cncc(-c2nc(NCCc3c[nH]c4ccccc34)c3ncn(C(C)C)c3n2)c1 . Reported viability, T/C?
Reply: 101

Ask: Try this molecule next: CCc1c2c(nc3ccc(O)cc13)-c1cc3c(c(=O)n1C2)COC(=O)[C@]3(O)CC + Cc1cncc(-c2nc(NCCc3c[nH]c4ccccc34)c3ncn(C(C)C)c3n2)c1
Reply: 78.7

Ask: Try this molecule next: Nc1ncn(C2CC(O)C(CO)S2)c(=O)n1 (centres undefined) + Cc1ccccc1N=Nc1ccc(NC(=O)c2ccnn2C)c(C)c1
Reply: 109

Ask: Try this molecule next: Nc1ncn(C2CC(O)C(CO)S2)c(=O)n1 (centres undefined) + Cc1cncc(-c2nc(NCCc3c[nH]c4ccccc34)c3ncn(C(C)C)c3n2)c1
Reply: 119

Ask: Try this molecule next: CC(C)CC(NC(=O)C(Cc1ccccc1)NC(=O)c1cnccn1)B(O)O (centres undefined) + Cc1ccccc1N=Nc1ccc(NC(=O)c2ccnn2C)c(C)c1
Reply: 80.8

Ask: Try this molecule next: CCc1c2c(nc3ccc(O)cc13)-c1cc3c(c(=O)n1C2)COC(=O)[C@]3(O)CC + Cc1ccccc1N=Nc1ccc(NC(=O)c2ccnn2C)c(C)c1
Reply: 76.4

----------
# Tested on: Hs578T complex spheroid growth, percent test/control
# method-notes: Anticancer human tumor Hs578T cell line growth inhibition [AhR];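 further: luminescent viability signal as a proxy for spheroid growth; spheroids exposed to agents for one week after three days of growth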
# test-settings: compound alone; run of 08/08/2022
experimental-readout: IC50

Ask: Return IC50 measured with Hs578T complex spheroid growth, percent test/control given this compound: CC(CO)NC(=O)c1cc(-c2ccc(Cl)cc2)nn(-c2cnn(C)c2)c1=O (stereo unspecified)
Reply: > 10 µM

----------
# Test system: Hs578T complex spheroid growth, percent test/control
# method-notes: Anticancer human tumor Hs578T cell line growth inhibition [AhR];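 further: luminescent viability signal as a proxy for spheroid growth; spheroids exposed to agents for one week after three days of growth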
# test-settings: second compound 1 µM; first compound 0.00316 µM; stronger effect = lower value
experimental-readout: viability, T/C (%)
Just the number please, in %, no unit attached.

Check out these entries, answers already filled in.
[[record]]
molecule = "Nc1ncn(C2CC(O)C(CO)O2)c(=O)n1 (stereo unspecified) + Cc1ccccc1N=Nc1ccc(NC(=O)c2ccnn2C)c(C)c1"
experimental_readout = "viability, T/C"
test_value = 95.4

[[record]]
molecule = "Nc1ncn(C2CC(O)C(CO)O2)c(=O)n1 (stereo unspecified) + CC(CO)NC(=O)c1cc(-c2ccc(Cl)cc2)nn(-c2cnn(C)c2)c1=O"
experimental_readout = "viability, T/C"
test_value = 117

[[record]]
molecule = "CC1COCCN1c1cc(-c2ccnn2C)c2ccnc(-c3ccn[nH]3)c2n1 (stereo unspecified) + Cc1cncc(-c2nc(NCCc3c[nH]c4ccccc34)c3ncn(C(C)C)c3n2)c1"
experimental_readout = "viability, T/C"
test_value = 109

[[record]]
molecule = "CC[C@@]1(O)C(=O)OCc2c1cc1n(c2=O)Cc2cc3c(CN(C)C)c(O)ccc3nc2-1 + Cc1ccccc1N=Nc1ccc(NC(=O)c2ccnn2C)c(C)c1"
experimental_readout = "viability, T/C"
test_value = 96

[[record]]
molecule = "CC[C@@]1(O)C(=O)OCc2c1cc1n(c2=O)Cc2cc3c(CN(C)C)c(O)ccc3nc2-1 + CC(CO)NC(=O)c1cc(-c2ccc(Cl)cc2)nn(-c2cnn(C)c2)c1=O"
experimental_readout = "viability, T/C"
test_value = 120


Here is the next item to consider.
Ask: Entry under review: Cn1ncnc1C1c2n[nH]c(=O)c3cc(F)cc(c23)NC1c1ccc(F)cc1 (stereo unspecified) + Cc1cncc(-c2nc(NCCc3c[nH]c4ccccc34)c3ncn(C(C)C)c3n2)c1 . Reported viability, T/C?
Reply: 98
